Just for reference, patent US20250282827A1 is where these values come from.

# Tested on: K. pneumoniae ATCC MS6671
# Type: cell-based, Klebsiella pneumoniae
# protocolConditions: median of triplicate
Positions of bridges follow the written chain, without caps; N, C: chain ends. Non-standard residues stand in square brackets, D forms with d. Residues, ends and D or L forms follow the SMILES beside them. *: point of attachment. CH2CH2OBz(4-tBu) = CC(C)(C)c1ccc(C(=O)OCC*)cc1; Ethyl(2-OBz) = O=C(OCC*)c1ccccc1; Dab = NCC[C@H](N)C(=O)O
quantity: MIC K. pneumoniae ATCC MS6671

Quick check: MIC K. pneumoniae ATCC MS6671 of C[C@@H](O)[C@@H]1NC(=O)[C@H](CCN)NC(=O)[C@H](CCN)NC(=O)[C@H](CSCCOC(=O)c2ccccc2)NC(=O)[C@@H](Cc2ccccc2)NC(=O)[C@H](CCN)NC(=O)[C@@H](NC(=O)[C@H](CCN)NC(=O)[C@@H](NC(=O)[C@H](CCN)NC(=O)[C@@H](N)CSCCOC(=O)c2ccc(C(C)(C)C)cc2)[C@@H](C)O)CCNC1=O [Compound 41] (H-C(CH2CH2OBz(4-tBu))[Dab]T[Dab][Dab][Dab][dF]C(Ethyl(2-OBz))[Dab][Dab]T; lactam 5-C) ?
>32 µg/mL

###

# Test system: K. pneumoniae ATCC 700603
# Format: cell-based, Klebsiella pneumoniae
# protocolConditions: median of triplicate
Positions of bridges follow the written chain, without caps; N, C: chain ends. Non-standard residues stand in square brackets, D forms with d. Residues, ends and D or L forms follow the SMILES beside them. *: point of attachment. Ethyl(2-propionyloxy) = CCC(=O)OCC*; Ethyl(2-OPiv) = CC(C)(C)C(=O)OCC*; Ethyl(2-OBz) = O=C(OCC*)c1ccccc1; Dab = NCC[C@H](N)C(=O)O
Recorded MIC K. pneumoniae ATCC 700603, one value per entry.
# unit: µg/mL | format: bare number

CCC(=O)OCCSC[C@H](N)C(=O)N[C@@H](CCN)C(=O)N[C@H](C(=O)N[C@@H](CCN)C(=O)N[C@H]1CCNC(=O)[C@H]([C@@H](C)O)NC(=O)[C@H](CCN)NC(=O)[C@H](CCN)NC(=O)[C@H](CSCCOC(=O)c2ccccc2)NC(=O)[C@@H](Cc2ccccc2)NC(=O)[C@H](CCN)NC1=O)[C@@H](C)O [Compound 44] (H-C(Ethyl(2-propionyloxy))[Dab]T[Dab][Dab][Dab][dF]C(Ethyl(2-OBz))[Dab][Dab]T; lactam 5-C) : 0.5

Data request, read-out MIC K. pneumoniae ATCC 700603, for C[C@@H](O)[C@@H]1NC(=O)[C@H](CCN)NC(=O)[C@H](CCN)NC(=O)[C@H](CSCCOC(=O)C(C)(C)C)NC(=O)[C@@H](Cc2ccccc2)NC(=O)[C@H](CCN)NC(=O)[C@@H](NC(=O)[C@H](CCN)NC(=O)[C@@H](NC(=O)[C@H](CCN)NC(=O)[C@@H](N)CSCCOC(=O)c2ccccc2)[C@@H](C)O)CCNC1=O [Compound 48] (H-C(Ethyl(2-OBz))[Dab]T[Dab][Dab][Dab][dF]C(Ethyl(2-OPiv))[Dab][Dab]T; lactam 5-C)
4

###

Recorded Score (nephrotoxicity on kidney organoids) by entry
# Test system: kidney organoids derived from human induced pluripotent stem cells
# protocolDetails: Nephrotoxicity on kidney organoids, renal tubule deterioration by bright field imaging; further: key: 1 = unaffected; 2 = mild deterioration; 3 = severe deterioration; 4 = complete deterioration
# Assay type: cell-based
# protocolConditions: 300 μM, scored after 48 h
Positions of bridges follow the written chain, without caps; N, C: chain ends. Non-standard residues stand in square brackets, D forms with d. Residues, ends and D or L forms follow the SMILES beside them. *: point of attachment. Ethyl(2-propionyloxy) = CCC(=O)OCC*; Ethyl(2-OPiv) = CC(C)(C)C(=O)OCC*; Ethyl(2-OBz) = O=C(OCC*)c1ccccc1; Dab = NCC[C@H](N)C(=O)O; X3 = CCCC(C)C(=O)OCC*
// no unit string in output, number only

Consider the worked cases shown below.
CC(C)C[C@@H]1NC(=O)[C@@H](Cc2ccccc2)NC(=O)[C@H](CCN)NC(=O)[C@@H](NC(=O)[C@H](CCN)NC(=O)[C@@H](NC(=O)[C@H](CCN)NC(=O)[C@@H](N)CSCCOC(=O)c2ccccc2)[C@@H](C)O)CCNC(=O)[C@H]([C@@H](C)O)NC(=O)[C@H](CCN)NC(=O)[C@H](CCN)NC1=O [Compound 33] (H-C(Ethyl(2-OBz))[Dab]T[Dab][Dab][Dab][dF]L[Dab][Dab]T; lactam 5-C) : 3
CCCC(C)C(=O)OCCSC[C@@H](N)C(=O)N[C@H](C(=O)N[C@@H](CCN)C(=O)N[C@H]1CCNC(=O)[C@H]([C@@H](C)O)NC(=O)[C@H](CCN)NC(=O)[C@H](CCN)NC(=O)[C@H](CC(C)C)NC(=O)[C@@H](Cc2ccccc2)NC(=O)[C@H](CCN)NC1=O)[C@@H](C)O (stereo partly shown) [Compound 94] (H-[dC](X3)T[Dab][Dab][Dab][dF]L[Dab][Dab]T; lactam 4-C) : 2
CC(=O)N[C@@H](CSCCOC(=O)c1ccccc1)C(=O)N[C@@H](CCN)C(=O)N[C@H](C(=O)N[C@@H](CCN)C(=O)N[C@H]1CCNC(=O)[C@H]([C@@H](C)O)NC(=O)[C@H](CCN)NC(=O)[C@H](CCN)NC(=O)[C@H](CSCCOC(=O)c2ccccc2)NC(=O)[C@@H](Cc2ccccc2)NC(=O)[C@H](CCN)NC1=O)[C@@H](C)O [Compound 49] (Ac-C(Ethyl(2-OBz))[Dab]T[Dab][Dab][Dab][dF]C(Ethyl(2-OBz))[Dab][Dab]T; lactam 5-C) : 3

Could you tell me which Score (nephrotoxicity on kidney organoids) is on file for C[C@@H](O)[C@@H]1NC(=O)[C@H](CCN)NC(=O)[C@H](CCN)NC(=O)[C@H](CSCCOC(=O)c2ccccc2)NC(=O)[C@@H](Cc2ccccc2)NC(=O)[C@H](CCN)NC(=O)[C@@H](NC(=O)[C@H](CCN)NC(=O)[C@@H](NC(=O)[C@H](CCN)NC(=O)[C@@H](N)CSCCOC(=O)c2ccccc2)[C@@H](C)O)CCNC1=O [Compound 39] (H-C(Ethyl(2-OBz))[Dab]T[Dab][Dab][Dab][dF]C(Ethyl(2-OBz))[Dab][Dab]T; lactam 5-C) ?
3

// returns reported Score (nephrotoxicity on kidney organoids) for input C[C@@H](O)[C@@H]1NC(=O)[C@H](CCN)NC(=O)[C@H](CCN)NC(=O)[C@H](CSCCOC(=O)C(C)(C)C)NC(=O)[C@@H](Cc2ccccc2)NC(=O)[C@H](CCN)NC(=O)[C@@H](NC(=O)[C@H](CCN)NC(=O)[C@@H](NC(=O)[C@H](CCN)NC(=O)[C@@H](N)CSCCOC(=O)c2ccccc2)[C@@H](C)O)CCNC1=O [Compound 48] (H-C(Ethyl(2-OBz))[Dab]T[Dab][Dab][Dab][dF]C(Ethyl(2-OPiv))[Dab][Dab]T; lactam 5-C)
2

Which value of Score (nephrotoxicity on kidney organoids) has been reported for CCC(=O)OCCSC[C@@H]1NC(=O)[C@@H](Cc2ccccc2)NC(=O)[C@H](CCN)NC(=O)[C@@H](NC(=O)[C@H](CCN)NC(=O)[C@@H](NC(=O)[C@H](CCN)NC(=O)[C@@H](N)CSCCOC(=O)c2ccccc2)[C@@H](C)O)CCNC(=O)[C@H]([C@@H](C)O)NC(=O)[C@H](CCN)NC(=O)[C@H](CCN)NC1=O [Compound 47] (H-C(Ethyl(2-OBz))[Dab]T[Dab][Dab][Dab][dF]C(Ethyl(2-propionyloxy))[Dab][Dab]T; lactam 5-C) in the records?
2

Item CCC(=O)OCCSC[C@H](N)C(=O)N[C@@H](CCN)C(=O)N[C@H](C(=O)N[C@@H](CCN)C(=O)N[C@H]1CCNC(=O)[C@H]([C@@H](C)O)NC(=O)[C@H](CCN)NC(=O)[C@H](CCN)NC(=O)[C@H](CSCCOC(=O)c2ccccc2)NC(=O)[C@@H](Cc2ccccc2)NC(=O)[C@H](CCN)NC1=O)[C@@H](C)O [Compound 44] (H-C(Ethyl(2-propionyloxy))[Dab]T[Dab][Dab][Dab][dF]C(Ethyl(2-OBz))[Dab][Dab]T; lactam 5-C) has what recorded Score (nephrotoxicity on kidney organoids)?
2

###

Known MIC P. aeruginosa ATCC 27853 of a selection of molecules
# System: P. aeruginosa ATCC 27853
# Assay type: cell-based, Pseudomonas aeruginosa
# protocolConditions: median of triplicate
Positions of bridges follow the written chain, without caps; N, C: chain ends. Non-standard residues stand in square brackets, D forms with d. Residues, ends and D or L forms follow the SMILES beside them. *: point of attachment. CH2CH2OBz(4-tBu) = CC(C)(C)c1ccc(C(=O)OCC*)cc1; Ethyl(2-OPiv) = CC(C)(C)C(=O)OCC*; Ethyl(2-OBz) = O=C(OCC*)c1ccccc1; Lauroyl = CCCCCCCCCCCC(=O)*; Dab = NCC[C@H](N)C(=O)O
Numbers only; they are read as µg/mL.

Here's what some known entries look like.
CC(C)C[C@@H]1NC(=O)[C@@H](Cc2ccccc2)NC(=O)[C@H](CCN)NC(=O)[C@@H](NC(=O)[C@H](CCN)NC(=O)[C@@H](NC(=O)[C@H](CCN)NC(=O)[C@@H](N)CSCCOC(=O)c2ccccc2)[C@@H](C)O)CCNC(=O)[C@H]([C@@H](C)O)NC(=O)[C@H](CCN)NC(=O)[C@H](CCN)NC1=O [Compound 33] (H-C(Ethyl(2-OBz))[Dab]T[Dab][Dab][Dab][dF]L[Dab][Dab]T; lactam 5-C) : 0.5
C[C@@H](O)[C@@H]1NC(=O)[C@H](CCN)NC(=O)[C@H](CCN)NC(=O)[C@H](CSCCOC(=O)c2ccccc2)NC(=O)[C@@H](Cc2ccccc2)NC(=O)[C@H](CCN)NC(=O)[C@@H](NC(=O)[C@H](CCN)NC(=O)[C@@H](NC(=O)[C@H](CCN)NC(=O)[C@@H](N)CSCCOC(=O)C(C)(C)C)[C@@H](C)O)CCNC1=O [Compound 46] (H-C(Ethyl(2-OPiv))[Dab]T[Dab][Dab][Dab][dF]C(Ethyl(2-OBz))[Dab][Dab]T; lactam 5-C) : 16
C[C@@H](O)[C@@H]1NC(=O)[C@H](CCN)NC(=O)[C@H](CCN)NC(=O)[C@H](CSCCOC(=O)c2ccccc2)NC(=O)[C@@H](Cc2ccccc2)NC(=O)[C@H](CCN)NC(=O)[C@@H](NC(=O)[C@H](CCN)NC(=O)[C@@H](NC(=O)[C@H](CCN)NC(=O)[C@@H](N)CSCCOC(=O)c2ccc(C(C)(C)C)cc2)[C@@H](C)O)CCNC1=O [Compound 41] (H-C(CH2CH2OBz(4-tBu))[Dab]T[Dab][Dab][Dab][dF]C(Ethyl(2-OBz))[Dab][Dab]T; lactam 5-C) : 2
CCCCCCCCCCCC(=O)N[C@@H](CSCCOC(=O)c1ccccc1)C(=O)N[C@@H](CCN)C(=O)N[C@H](C(=O)N[C@@H](CCN)C(=O)N[C@H]1CCNC(=O)[C@H]([C@@H](C)O)NC(=O)[C@H](CCN)NC(=O)[C@H](CCN)NC(=O)[C@H](CSCCOC(=O)c2ccccc2)NC(=O)[C@@H](Cc2ccccc2)NC(=O)[C@H](CCN)NC1=O)[C@@H](C)O [Compound 52] (Lauroyl-C(Ethyl(2-OBz))[Dab]T[Dab][Dab][Dab][dF]C(Ethyl(2-OBz))[Dab][Dab]T; lactam 5-C) : 4

Kindly review the next molecule as well.
Look at this molecule and give its reported MIC P. aeruginosa ATCC 27853. CC(=O)N[C@@H](CSCCOC(=O)c1ccccc1)C(=O)N[C@@H](CCN)C(=O)N[C@H](C(=O)N[C@@H](CCN)C(=O)N[C@H]1CCNC(=O)[C@H]([C@@H](C)O)NC(=O)[C@H](CCN)NC(=O)[C@H](CCN)NC(=O)[C@H](CSCCOC(=O)c2ccccc2)NC(=O)[C@@H](Cc2ccccc2)NC(=O)[C@H](CCN)NC1=O)[C@@H](C)O [Compound 49] (Ac-C(Ethyl(2-OBz))[Dab]T[Dab][Dab][Dab][dF]C(Ethyl(2-OBz))[Dab][Dab]T; lactam 5-C)
1
